Ref: patent US20250313625A1

# target or system: T1, mouse LAG3, full length, stably expressed on CHOK1 cells (mouse, UniProt Q61790 24-521)
# T1 construct: whole, on cells
# T1 sequence (looked up): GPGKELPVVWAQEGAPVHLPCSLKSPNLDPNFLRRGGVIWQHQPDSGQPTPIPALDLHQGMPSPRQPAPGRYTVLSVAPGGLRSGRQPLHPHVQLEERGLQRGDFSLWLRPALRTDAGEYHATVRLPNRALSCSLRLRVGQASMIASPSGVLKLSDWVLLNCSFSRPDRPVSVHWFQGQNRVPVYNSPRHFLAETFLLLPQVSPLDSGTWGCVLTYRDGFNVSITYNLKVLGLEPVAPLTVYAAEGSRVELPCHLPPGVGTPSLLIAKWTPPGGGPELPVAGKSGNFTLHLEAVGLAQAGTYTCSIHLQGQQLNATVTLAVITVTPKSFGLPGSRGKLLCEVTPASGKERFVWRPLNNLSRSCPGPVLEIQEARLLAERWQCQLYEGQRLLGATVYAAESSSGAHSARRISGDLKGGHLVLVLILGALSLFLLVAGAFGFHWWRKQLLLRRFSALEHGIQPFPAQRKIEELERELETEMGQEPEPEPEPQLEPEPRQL
# experimental protocol: FACS on CHOK1 cells expressing mouse LAG3

binder: Antibody 015 (antibody, V domains shown, mouse hybridoma antibody) VH: EVQLQQSGPVLVKPGASVKLSCKASGFTFTDYYMNWVKLSHGKSLEWIGVINPFNGDTAYKQKFKGKATLTVDKSSSTAYMELNSLTSEDSAVYYCARDDGYYLYYFDSWGQGTTLTVSS VL: DIQMTQSPSSLSASLGERVSLTCRASQDIGSRLNWLQQEPDGTIKRLIYATSSLDSGVPKRFSGSRSGSDYSLTISSLDSEDFVVYYCLQYASSPPTFGAGTKLELK
binding result: no binding

binder: Antibody 024 (antibody, V domains shown, mouse hybridoma antibody) VH: EVQLQQSGPELVKPGASVKISCKASGYTFTDYYMNWVKQSHGKRLEWIGDIDPNNGGTSYNQKFKGKATLTVDKSSSSAYMDLRSLTSEDSAVYYCARAGSYYYGSSYVEYFDVWGTGTTVTVSS VL: DIQMTQSPASLSASVGETVTITCRASGNIHNYLAWYQQKQGASPQLLVYNAKTLADGVPSRFSGSGSGTEFSLKINSLQPEDFGNYYCQHFWNTPYTFGGGTKLEIK
binding result: no binding
